FYI, the data here is from patent US20190241654A1.

# TARGET: T1, recombinant extracellular domain of CD47 (UniProt Q08722 19-139, limits assumed)
# T1 construct: extracellular domain; Analyte flowed over the captured antibodies in SPR; also called CD47-ECD
# T1 sequence (Q08722 19-139 limits assumed): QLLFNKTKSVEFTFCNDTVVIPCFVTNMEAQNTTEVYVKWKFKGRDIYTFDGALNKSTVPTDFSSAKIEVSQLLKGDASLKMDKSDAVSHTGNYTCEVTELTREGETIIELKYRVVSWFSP
# PROCEDURE SUMMARY: SPR; antibody captured on anti-human Fc, CD47-ECD flowed 0-100 nM; 1:1 Langmuir
Would you kindly list koff for each of these binders?
Answers are plain numbers, in s⁻¹.

Check out these entries, answers already filled in.
Ab482/Ab387 (antibody, V domains shown, FR variant of AbParental; also called LC Ab482 / HC Ab387) VH: QMQLVQSGAEVKKPGSSVKVSCKASGFNIKDYYLHWVRQAPGKGLEWMGWIDPDQGDTEYAQKFQGRVTITRDRSTSTAYMELRSLRSEDTAVYYCNAAYGSSSYPMDYWGQGTLVTVSS VL: NIQMTQSPSSMSASVGDRVTITCKASQDIHRYLSWFQQKPGKVPKHLIYRANRLVSGVPSRFSGSGSGTEFTLTISSLQPEDFATYYCLQYDEFPYTFGGGTKVEIK ... 0.00549
Ab356/Ab1127 (antibody, V domains shown, FR and CDR L2 variant; Label printed HC first; r460 used; also called HC Ab356 / LC Ab1127) VH: QMQLVQSGAEVKKPGSSVKVSCKASGFNIKDYYLHWVRQAPGKGLEWMGWIDPDQGDTEYAQKFQGRVTITRDRSTSTAYMELRSLRAEDTAVYYCNAAYGSSSYPMDYWGQGTTVTVSS VL: NIQMTQSPSSLSASVGDRVTITCRASQDIHRYLSWFQQKPGKVPKHLIYRESRFVDGVPSRFSGSGSGTEFTLTISSLQPEDFATYYCLQYDEFPYTFGGGTKVEIK ... 0.0106

Name the reported koff value associated with the binder Ab1119/Ab480 (antibody, V domains shown, Variant of AbParental; also called LC Ab1119 / HC Ab480) VH: QMQLVQSGAEVKKPGSSVKVSCKASGFNIKDYYLHWVRQAPGKGLEWMGWIDPDQGDTEYAQKFQGRVTITRDRSTSTAYMELRSLRAEDTAVYYCNAAYGSSSYPMDYWGQGTLVTVSS VL: NIQMTQSPSSLSASVGDRVTITCRASQDIHRYLSWFQQKPGKVPKHLIYRANRLVSGVPSRFSGSGSGTEFTLTISSLQPEDFATYYCLQYDEFPYTFGGGTKVEIK
0.00577
